- System: SEM cells
- assay.procedure: cell viability relative to DMSO control; higher = less cytotoxic
- test.settings: RPMI 5 mM glucose + 10% dialyzed FBS; 48 h; 15.4 µM
Each entry below carries its recorded cell viability.
Give just the numeric value; % need not be written.

Illustrative cases are given below, each with its answer.
{"compound": "OC(CCN1CCCCC1)(C2CC\\3CC2\\C=C3)C4=CC=CC=C4 (centres undefined)", "result": 136}
{"compound": "NC/1=N/C(=O)N(C[C@@H](CO)OC[P](O)(O)=O)/C=C1", "result": 111}
{"compound": "CC(C[N+](C)(C)C)OC(N)=O (centres undefined)", "result": 116}

Prompt: Can you look up the measured cell viability of C=CCc1cc(OC)c(O)c(C(=O)NCCO)c1 for me?
Completion: 78.4

Prompt: Can you look up the measured cell viability of Cc1cccc(N(C)C(=S)Oc2ccc3ccccc3c2)c1 for me?
Completion: 101

Prompt: Can you look up the measured cell viability of COCCCOc1ccnc(C[S+]([O-])c2nc3ccccc3[nH]2)c1C (centres undefined) for me?
Completion: 108

Prompt: Can you look up the measured cell viability of CN1/C=C(\N=C(NC2=CC=C(C=C2)C(=O)N3CCOCC3)/C1=O)/C4=C(C)C(=CC=C4)NC(=O)C5=CC=C(C=C5)C(C)(C)C for me?
Completion: 98.5

Prompt: Can you look up the measured cell viability of COC(=O)Nc1ccc(-c2nc(N3CCOCC3)c3cnn(C4CCN(Cc5cccnc5)CC4)c3n2)cc1 for me?
Completion: 3.11

Prompt: Can you look up the measured cell viability of FC1=CC=C(CN2\C=C/C=C(/C(=O)N[C@@H](COC3=CC4=C(NC(=O)N4)C=C3)C5=CC=CC=C5)C2=O)C=C1F for me?
Completion: 49.8

----------
- System: NOMO1
- assay.procedure: cell viability relative to DMSO control; higher = less cytotoxic
- test.settings: RPMI 5 mM glucose + 10% FBS; 48 h; 0.19 µM
attribute.measured: cell viability (%)
Give just the numeric value; % need not be written.

Illustrative cases are given below, each with its answer.
{"molecule": "OC1=CC2=C(C(=O)\\C=C(/O2)C3=CC=CC=C3)C(=C1O)O", "uom": "%", "cell viability": 111}
{"molecule": "CCCCOc1ccc(CC(=O)NO)cc1", "uom": "%", "cell viability": 118}
{"molecule": "Cc1cc(-c2nnc3n2CCCCC3)c(C)n1-c1ccccc1", "uom": "%", "cell viability": 120}
{"molecule": "CCc1cccc2c3c([nH]c12)C(CC)(CC(=O)O)OCC3 (stereo unspecified)", "uom": "%", "cell viability": 90.4}
{"molecule": "CC[C@H](NC(C)C)[C@H](O)c1ccc(O)c2[nH]c(=O)ccc12", "uom": "%", "cell viability": 107}

// moving on: another record for cell viability
Prompt: Can you look up the measured cell viability of C=CC(=O)Nc1cccc(Oc2nc(Nc3ccc(N4CCN(C)CC4)cc3OC)ncc2Cl)c1 for me?
Completion: 102

----------
- System: SEM cells
- assay.procedure: cell viability relative to DMSO control; higher = less cytotoxic
- test.settings: HPLM + 10% dialyzed FBS; 48 h; 0.00702 µM
attribute.measured: cell viability (%)
Give just the numeric value; % need not be written.

Illustrative cases are given below, each with its answer.
{"compound": "CCOC(CN1C(=O)[C@](CC(=O)Nc2ccc(C)cc2)(NC(=O)Nc2ccc(C)cc2)c2ccccc21)OCC", "measured.target": "SEM cells", "attribute.measured": "cell viability", "result": 105}
{"compound": "C=CCc1cc(OC)c(O)c(C(=O)NCCO)c1", "measured.target": "SEM cells", "attribute.measured": "cell viability", "result": 101}
{"compound": "OCCNC1CCCc2c1[nH]c1ccc(-c3ccccc3)cc21 (stereo not drawn)", "measured.target": "SEM cells", "attribute.measured": "cell viability", "result": 91.5}

Prompt: Can you look up the measured cell viability of CC(C[N+](C)(C)C)OC(N)=O (stereo not drawn) for me?
Completion: 83.5

Prompt: Can you look up the measured cell viability of CN[C@H]1[C@H](O[C@@H]2[C@H](O[C@@H]3[C@@H](O)[C@@H](O)[C@@H](NC(=N)N)[C@@H](O)[C@H]3NC(=N)N)O[C@H](C)[C@@]2(O)C=O)O[C@@H](CO)[C@@H](O)[C@H]1O for me?
Completion: 79.7

Prompt: Can you look up the measured cell viability of O=[S+]([O-])(/N=C/c1c(O)ccc2ccccc12)c1cccs1 for me?
Completion: 101

Prompt: Can you look up the measured cell viability of CC1=CC=C2\N=C/3N(CC[C@@]3(O)C(=O)C2=C1)C4=CC=CC=C4 for me?
Completion: 97.7

Prompt: Can you look up the measured cell viability of O=[S+]([O-])(O)c1ccc2cc(/N=N/c3cc([S+](=O)([O-])O)c4cccnc4c3O)ccc2c1 for me?
Completion: 120

Prompt: Can you look up the measured cell viability of C[C@@H](NCc1cc2ccccc2[nH]1)c1cccc2ccccc12 for me?
Completion: 86.2

Prompt: Can you look up the measured cell viability of CCC(=O)OC1CCC2C3CCC/4=C/C(=O)CC[C@@]4(C)C3CC[C@]12C (stereo partly drawn) for me?
Completion: 110
